Values from patent US20110224208A1

Protocol text: Proliferation of exponentially growing Huh-5-2 cells (MTS method)
Assay context: human, CC50, concentration required to inhibit the proliferation of exponentially growing Huh-5-2 cells by 50%; Table 2
Class membership depends on CC50 at 72 h alone; the intervals are lower = under 10 µg/mL, middle = from 10 µg/mL up to 50 µg/mL, upper = 50 µg/mL and over

Past entries and their recorded results:
INSERT INTO results (molecule, assigned_category) VALUES
  ('COCCN1C(=O)c2ccccc2C(C(=O)Nc2ccc(-c3ccccc3)nc2)C1c1cccs1 (stereo not drawn) [C186]', 'lower'),
  ('COCCN1C(=O)c2ccccc2C(C(=O)Nc2cccc(OC)c2)C1c1nccs1 (stereo not drawn) [C102]', 'upper'),
  ('COCCN1C(=O)c2ccccc2C(C(=O)Nc2cccc(OC)c2)C1c1ccsc1 (stereo not drawn) [C11]', 'middle'),
  ('COc1cccc(NC(=O)C2c3ccccc3C(=O)N(C3CCCCC3)C2c2cccs2)c1 (stereo not drawn) [C25]', 'lower');

Exercise: Which bin should I file COCCN1C(=O)c2ccccc2C(C(=O)Nc2ccc(N3CCCCC3)cc2)C1c1cccs1 (stereo not drawn) [C107] under?
Key: middle

Exercise: Which bin should I file COCCn1c(-c2cccs2)c(C(=O)Nc2cccc(OC)c2)c2ccccc2c1=O [C32] under?
Key: upper

Exercise: Which bin should I file COCCN1C(=O)c2ccccc2C(C(=O)Nc2cccc(-n3cccn3)c2)C1c1cccs1 (stereo not drawn) [C172] under?
Key: middle

Exercise: Which bin should I file CCN1C(=O)c2ccccc2C(C(=O)Nc2cccc(OC)c2)C1c1cccs1 (stereo not drawn) [C5] under?
Key: middle
